Sourced from patent US20190276496A1

Measured Target: human FOXP3 tagged with 6 histidines at the C terminus (human) (UniProt Q9BZS1)
Sequence (Q9BZS1 other isoform, or with tags, fused parts or gaps): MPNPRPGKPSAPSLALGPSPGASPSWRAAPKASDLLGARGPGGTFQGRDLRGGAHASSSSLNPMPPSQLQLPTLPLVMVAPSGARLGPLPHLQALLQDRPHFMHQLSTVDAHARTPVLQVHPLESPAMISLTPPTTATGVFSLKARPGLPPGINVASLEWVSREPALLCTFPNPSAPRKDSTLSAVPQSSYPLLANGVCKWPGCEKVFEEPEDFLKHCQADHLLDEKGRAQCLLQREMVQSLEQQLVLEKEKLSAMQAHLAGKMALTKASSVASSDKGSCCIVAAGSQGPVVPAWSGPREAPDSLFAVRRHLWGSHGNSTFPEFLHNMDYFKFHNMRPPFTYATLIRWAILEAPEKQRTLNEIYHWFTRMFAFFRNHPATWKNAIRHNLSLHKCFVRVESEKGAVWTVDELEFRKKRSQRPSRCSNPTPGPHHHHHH
Assay: SPR (ProteOn XPR36), FOXP3-6His immobilized on GLM chip, peptide 1-20 µM injected; ratio to p60 (SEQ ID NO: 1)
[ ]: non-standard residue; d: D form.
// NO strictly below 5 fold change in Ratio binding Peptide/p60 (fold change); YES otherwise

// below: answered binders
cyclo(R[dA]FQAFRKMWPFFAM) (SMILES CSCC[C@@H]1NC(=O)[C@H](C)NC(=O)[C@H](Cc2ccccc2)NC(=O)[C@H](Cc2ccccc2)NC(=O)[C@@H]2CCCN2C(=O)[C@H](Cc2c[nH]c3ccccc23)NC(=O)[C@H](CCSC)NC(=O)[C@H](CCCCN)NC(=O)[C@H](CCCNC(=N)N)NC(=O)[C@H](Cc2ccccc2)NC(=O)[C@H](C)NC(=O)[C@H](CCC(N)=O)NC(=O)[C@H](Cc2ccccc2)NC(=O)[C@@H](C)NC(=O)[C@H](CCCNC(=N)N)NC1=O) [peptide of SEQ ID NO: 51]; YES
cyclo(R[dA]FQAFRKMWPFFAM) (SMILES CSCC[C@@H]1NC(=O)[C@H](C)NC(=O)[C@H](Cc2ccccc2)NC(=O)[C@H](Cc2ccccc2)NC(=O)[C@@H]2CCCN2C(=O)[C@H](Cc2c[nH]c3ccccc23)NC(=O)[C@H](CCSC)NC(=O)[C@H](CCCCN)NC(=O)[C@H](CCCNC(=N)N)NC(=O)[C@H](Cc2ccccc2)NC(=O)[C@H](C)NC(=O)[C@H](CCC(N)=O)NC(=O)[C@H](Cc2ccccc2)NC(=O)[C@@H](C)NC(=O)[C@H](CCCNC(=N)N)NC1=O) [peptide of SEQ ID NO: 52]; YES
Ac-GRAFQSFRKMWAFFAM-NH2 [peptide of SEQ ID NO: 44]; NO
RDFQSFRKMWAFFAM [peptide of SEQ ID NO: 30]; NO
RDFQSFRKMWYFFAM [peptide of SEQ ID NO: 35]; NO

// inclusive: Ratio binding Peptide/p60 (fold change) at least 5 fold change? input: RAFQSFRKMWPFFAM [peptide of SEQ ID NO: 5]
NO

Is reported Ratio binding Peptide/p60 (fold change) greater than or equal to 5 fold change here: Ac-GRDFQ[dA]FRKMWPFFAM-NH2 (SMILES CSCC[C@H](NC(=O)[C@H](C)NC(=O)[C@H](Cc1ccccc1)NC(=O)[C@H](Cc1ccccc1)NC(=O)[C@@H]1CCCN1C(=O)[C@H](Cc1c[nH]c2ccccc12)NC(=O)[C@H](CCSC)NC(=O)[C@H](CCCCN)NC(=O)[C@H](CCCNC(=N)N)NC(=O)[C@H](Cc1ccccc1)NC(=O)[C@@H](C)NC(=O)[C@H](CCC(N)=O)NC(=O)[C@H](Cc1ccccc1)NC(=O)[C@H](CC(=O)O)NC(=O)[C@H](CCCNC(=N)N)NC(=O)CNC(C)=O)C(N)=O) [peptide of SEQ ID NO: 39]
NO

Is reported Ratio binding Peptide/p60 (fold change) greater than or equal to 5 fold change here: cyclo(R[dA]FQAFRKMWPFFAM) (SMILES CSCC[C@@H]1NC(=O)[C@H](C)NC(=O)[C@H](Cc2ccccc2)NC(=O)[C@H](Cc2ccccc2)NC(=O)[C@@H]2CCCN2C(=O)[C@H](Cc2c[nH]c3ccccc23)NC(=O)[C@H](CCSC)NC(=O)[C@H](CCCCN)NC(=O)[C@H](CCCNC(=N)N)NC(=O)[C@H](Cc2ccccc2)NC(=O)[C@H](C)NC(=O)[C@H](CCC(N)=O)NC(=O)[C@H](Cc2ccccc2)NC(=O)[C@@H](C)NC(=O)[C@H](CCCNC(=N)N)NC1=O) [peptide of SEQ ID NO: 54]
YES

Is it the case that Ac-GRAFQSFRKMWPFFAM-NH2 [peptide of SEQ ID NO: 13] has Ratio binding Peptide/p60 (fold change) reaching or exceeding 5 fold change?
NO

Reported Ratio binding Peptide/p60 (fold change) reaches at least 5 fold change for Ac-GRDFQSFRKMW[dA]FFAM-NH2 (SMILES CSCC[C@H](NC(=O)[C@H](C)NC(=O)[C@H](Cc1ccccc1)NC(=O)[C@H](Cc1ccccc1)NC(=O)[C@@H](C)NC(=O)[C@H](Cc1c[nH]c2ccccc12)NC(=O)[C@H](CCSC)NC(=O)[C@H](CCCCN)NC(=O)[C@H](CCCNC(=N)N)NC(=O)[C@H](Cc1ccccc1)NC(=O)[C@H](CO)NC(=O)[C@H](CCC(N)=O)NC(=O)[C@H](Cc1ccccc1)NC(=O)[C@H](CC(=O)O)NC(=O)[C@H](CCCNC(=N)N)NC(=O)CNC(C)=O)C(N)=O) [peptide of SEQ ID NO: 40] ?
NO

Please indicate if the recorded Ratio binding Peptide/p60 (fold change) for RDYQSFRKMWPFFAM [peptide of SEQ ID NO: 17] meets or exceeds 5 fold change.
NO

Does the binder Ac-GRDFQSFRKMWPFFAM-NH2 [peptide of SEQ ID NO: 2] have recorded Ratio binding Peptide/p60 (fold change) that is 5 fold change or more?
NO
